Documented Potency (pEC50) Molar across a set of substances
- Test system: smooth muscle of tracheal rings
- assayProcedure: spasmodic contraction of tracheal rings ex vivo (histamine-induced)
- Set-up: species or system Dunkin-Hartley guinea pigs
- particulars: tracheal rings contracted by histamine (50 μM); peptides 0.01 to 10 μM; mean±SEM
- Procedure: […] For each test, Dunkin-Hartley guinea pigs (400-500 g) were euthanized in a CO2 atmosphere; subsequently, the trachea was exposed, removed and sectioned in segments of 1 to 3 cartilaginous tracheal rings. […] The basal tension was adjusted to 1 g, and subsequently, the contractility of the fragments was evaluated by a stimulus with carbachol (2.5 μM). […]
The reply should contain only the number, in Molar.

Example results:
                                  substance            assaymetric  experimentalvalue
0            AQYFWIAWYKLANSK [SEQ ID NO: 4]  Potency (pEC50) Molar                6.8
1  WIAWYKL [SEQ ID NO: 23, Ac-Trp-Ile-Ala-Trp-Tyr-Lys-Leu-NH2]  Potency (pEC50) Molar                7.5
2                 RQYFWIAWY [SEQ ID NO: 20]  Potency (pEC50) Molar                7.1
3             QYFWIAWYKLANS [SEQ ID NO: 17]  Potency (pEC50) Molar                6.8
4               YFWIAWYKLAN [SEQ ID NO: 18]  Potency (pEC50) Molar                7.2
5            RQAFWIAWYKLANSK [SEQ ID NO: 3]  Potency (pEC50) Molar                6.8
6            RQYFWIAWYKIASNK [SEQ ID NO: 6]  Potency (pEC50) Molar                7.0
7            RQYFWIAWYKLANSA [SEQ ID NO: 2]  Potency (pEC50) Molar                6.9
8  RQYFWIAW [SEQ ID NO: 22, Ac-Arg-Gln-Tyr-Phe-Trp-Ile-Ala-Trp-NH2]  Potency (pEC50) Molar                7.0

Query the reported Potency (pEC50) Molar for smooth muscle of tracheal rings; item: RAYFWIAWYKLANSK [SEQ ID NO: 1] 7.1

Reference for the values: patent US10905738B2
